- testedSystem: GPR139 (Homo sapiens, UniProt Q6DWJ6)
- Sequence (Q6DWJ6 1-353): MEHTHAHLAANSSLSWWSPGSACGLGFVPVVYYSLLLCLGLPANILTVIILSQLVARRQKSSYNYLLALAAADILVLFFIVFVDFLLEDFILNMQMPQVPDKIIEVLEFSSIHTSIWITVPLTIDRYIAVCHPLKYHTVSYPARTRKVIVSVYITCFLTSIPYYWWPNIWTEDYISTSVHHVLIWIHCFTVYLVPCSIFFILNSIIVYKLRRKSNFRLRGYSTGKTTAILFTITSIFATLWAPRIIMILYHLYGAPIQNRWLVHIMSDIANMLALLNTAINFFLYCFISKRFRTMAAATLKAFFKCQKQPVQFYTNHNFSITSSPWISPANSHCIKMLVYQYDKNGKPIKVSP
- assayProcedure: GPR139 Agonist titration / agonist counterscreen assay (calcium detection, HEK-GPR139 cells)
- Type: cell-based
- Parameters: expressed in transfected cells; host or cells: HEK Aequorin cells, Maxcyte transient transfection
- assaySetup: GPR139 Agonist Activity; values printed in E-notation without unit; read-out: EC50
Below, each entry is listed alongside its reported EC50.
observationType: EC50 (nM)

>>> quantitativeresult("O=C(CN1CCN(Cc2ccccc2F)C1=O)NCCc1ccc(Cl)cc1 [SR-01000125584]")
47.1
>>> quantitativeresult("O=C(CCC1CCCC1)NNC(=O)CSc1ccc(Cl)cc1 [SR-01000069439]")
61.7
>>> quantitativeresult("Cc1nc(CNC(=O)CCC2(Cc3cccc4ccccc34)CCC(=O)N2)cs1 (stereo not drawn) [SR-01000187393]")
196
>>> quantitativeresult("O=C(CN1CCN(Cc2ccccc2Cl)C1=O)NC1CCCCCCC1 [SR-01000125462]")
159
>>> quantitativeresult("O=C(CCCOc1ccc(Cl)cc1Cl)NNC(=O)Cc1ccc2c(c1)OCCO2 [SR-01000065653]")
94.4
>>> quantitativeresult("Cc1c(Br)c([N+](=O)[O-])nn1CC(=O)NCCc1ccc(Cl)cc1 [SR-01000298170]")
31.6
>>> quantitativeresult("CC(CCc1ccccc1)NC(=O)Cn1cc2c(n1)CCCC2 (stereo not drawn) [SR-01000137757]")
15.3
>>> quantitativeresult("Cc1ccc(CCNC(=O)Cn2cc3c(n2)CCCC3)cc1 [SR-01000137723]")
5.7
>>> quantitativeresult("CC(CCc1ccccc1)NC(=O)c1ccc2c(c1)C(Cc1ccccc1)C(=O)C[S+]2[O-] (stereo not drawn) [SR-01000129880]")
56.1
>>> quantitativeresult("O=C(NC1CC1)C1CC(Cc2cccc3ccccc23)=NO1 (stereo not drawn) [SR-01000188699]")
63.8
>>> quantitativeresult("O=C(CN1CCCN(Cc2ccc(F)cc2Cl)C1=O)NC1CCCCCC1 [SR-01000146442]")
14.9
>>> quantitativeresult("COc1ccc(CCNC(=O)CC(=O)NCCc2ccc(OC)cc2)cc1 [SR-01000034566]")
137
>>> quantitativeresult("CC(NC(=O)Cn1ncc2ccccc21)c1ccc2c(c1)OCCO2 (stereo not drawn) [SR-01000152760]")
174
>>> quantitativeresult("CSc1cccc(NC(=O)C2C3C=CC4(O3)C2C(=O)N(C(C)c2ccccc2)C4C(=O)NC2CCCCC2)c1 (stereo not drawn) [SR-01000546462]")
56.5
>>> quantitativeresult("Nc1c(Cl)c(Cl)nc(C(=O)OCC(=O)NCc2ccccc2)c1Cl [SR-01000073564]")
58.6
>>> quantitativeresult("CC(NC(=O)COC(=O)c1ccccc1C(F)(F)F)c1ccccc1 (stereo not drawn) [SR-01000037440]")
32.9
>>> quantitativeresult("CC(Oc1ccc(Cl)cc1Cl)C(=O)NNC(=O)COc1ccccc1 (stereo not drawn) [SR-01000370374]")
114
>>> quantitativeresult("COc1cccc(CNC(=O)Nc2ccc(-c3cn[nH]c3)cc2)c1 [SR-00000005253]")
202
>>> quantitativeresult("CC1(c2ccc3ccccc3c2)NC(=O)C(CC(=O)NCc2ccco2)C1=O (stereo not drawn) [SR-01000058120]")
40.5
>>> quantitativeresult("COc1ccc(CCNC(=O)Nc2ccc3c(c2)CCCN3C(=O)C2CC2)cc1 [SR-01000923125]")
23.7
>>> quantitativeresult("O=C(CN1CCN(Cc2ccc(F)cc2Cl)C1=O)NCc1ccccc1Cl [SR-01000125622]")
208
>>> quantitativeresult("CCC1Cc2ccc(C)cc2CC1C(=O)Nc1ccc(-c2cn[nH]c2)cc1OCCN(C)C (stereo not drawn) [SR-00000007138]")
27.1
>>> quantitativeresult("O=C(CN1CCN(C/C=C/c2ccccc2)CC1)NCCCc1ccccc1 [SR-01000062290]")
58.8
>>> quantitativeresult("Cn1cnnc1SCc1ccc(F)c2ccccc12 [SR-01000524029]")
16.2
>>> quantitativeresult("Cc1ccc(CCNC(=O)CN2CCN(Cc3ccccc3Cl)C2=O)cc1 [SR-01000125464]")
143
>>> quantitativeresult("COc1ccccc1NC(=O)NNC(=O)CN1C(=O)COc2ccccc21 [SR-01000336035]")
79.7
>>> quantitativeresult("Cc1cccnc1NC(=O)Cn1ncc2c1-c1ccccc1OC2 [SR-01000152365]")
73
>>> quantitativeresult("O=C(CN1CCN(Cc2ccccc2Cl)C1=O)NC1CCCCCC1 [SR-01000125460]")
141
>>> quantitativeresult("Cc1ccc(C2(C)NC(=O)N(CC(=O)NCC(C)C)C2=O)cc1 (stereo not drawn) [SR-01000048367]")
36.5
>>> quantitativeresult("O=C(CSc1ccc(Cl)cc1)NNC(=O)c1ccc(O)cc1 [SR-01000060349]")
16.2
>>> quantitativeresult("CCc1nn(CC(=O)NCc2cccc(Br)c2)c(=O)c2cc3occc3n12 [SR-01000099472]")
26.3
>>> quantitativeresult("COc1ccc(C2(C)NC(=O)N(CC(=O)NCc3ccc(F)cc3)C2=O)cc1 (stereo not drawn) [SR-01000918720]")
48.9
>>> quantitativeresult("O=C(CSc1ccc2ccccc2c1)NNC(=O)c1ccc(Br)s1 [SR-01000069345]")
3.7
>>> quantitativeresult("CCOC(=O)c1ccc(CSc2nnc(N)s2)cc1 [SR-01000273754]")
118
>>> quantitativeresult("COc1ccc(NC(=O)NCCOc2cccc3ccccc23)cc1OC [SR-01000223498]")
33.9
